Molecular target: carbonyl reductase 1 (CBR1) (Homo sapiens)
Construct: human recombinant CBR1 expressed in Escherichia coli Rosetta (DE3)
Sequence (P16152 2-277): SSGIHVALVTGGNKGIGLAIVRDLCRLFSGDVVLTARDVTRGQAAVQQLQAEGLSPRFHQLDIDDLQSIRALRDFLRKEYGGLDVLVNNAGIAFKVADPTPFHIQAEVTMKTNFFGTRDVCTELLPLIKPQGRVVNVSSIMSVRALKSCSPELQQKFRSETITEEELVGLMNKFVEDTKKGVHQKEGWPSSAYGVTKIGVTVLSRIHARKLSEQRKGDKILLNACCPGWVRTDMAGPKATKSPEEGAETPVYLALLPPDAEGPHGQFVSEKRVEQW
Experiment: recombinant CBR1 inhibition, menadione substrate, NADPH oxidation monitored at […] nm
metric: pIC50
Note on units: pIC50 is unitless, being -log10 of a concentration expressed in mol/L.

// compound COc1ccc2[nH]c(C(=O)N3CCC(CC(C)(C)O)CC3)cc2c1 , assay carbonyl reductase 1 (CBR1) (Homo sapiens), pIC50 value: 4.36
